tested on: SR leukemia; assay: NCI tumour cell line growth inhibition, 48 h
I'd appreciate it if you could supply TGI values for the items below.

Molecule	TGI
COCC(O)CN1C(N)=NC(O)C1O (stereo unspecified)	> 100 µM
N#Cc1ccc(/C=C2\Cc3ccccc3C2=O)cc1	> 100 µM
Cc1nn(-c2ccccc2)c2ncc3c(c12)C(=O)N(Cc1ccccc1)C3=O	> 100 µM

Below are 3 molecules. Give each one its TGI.
1. COc1ccc(/C=C2\CC(C)CC3C2=NN(C(C)=O)C3c2ccc(OC)c(OC)c2)cc1OC (stereo unspecified)
2. O=C(C(=O)n1ccc2ccccc21)c1c[nH]c2ccccc12
3. O=C1c2ccccc2C(=O)c2c1c1cc(O)ccc1n2Cc1ccc(Cl)cc1Cl

74.4 µM
> 10 µM
> 100 µM

---

tested on: HCC-2998 colon; assay: NCI tumour cell line growth inhibition, 48 h; in the data active = GI50 below about 0.43 µM; inactive = the rest
Field 'call' accepts active, inactive

Hi team, can someone confirm the assay call for "Cn1c([N+](=O)[O-])cnc1/C=C1\Oc2ccc(Cl)cc2C1=O" ?
inactive

Hi team, can someone confirm the assay call for COc1ccc(C2CC(c3ccc(OC)c(OC)c3)=NN2C(=O)c2cc(OC)c(OC)c(OC)c2)cc1 (stereo not drawn) ?
inactive

Hi team, can someone confirm the assay call for "COC(=O)c1cc2c([nH]c3ccccc32)c(-c2nc3cc(N(S(=O)(=O)c4ccc(C)cc4)S(=O)(=O)c4ccc(C)cc4)c(OC)cc3cc2CO)n1" ?
inactive

Hi team, can someone confirm the assay call for CCN(CC)CCCC(C)NC(=S)N/N=C(\C)c1ccccn1 (stereo not drawn) ?
inactive

Hi team, can someone confirm the assay call for CC(=O)OC1C(OC/C2=C/C3[C@@H](C(C)C)CC=C(C)[C@@H]3CC(OC(=O)/C=C/c3cn(C)cn3)[C@]3(C)C=C[C@@]2(O)O3)OCC(O)C1O (stereo partly drawn) ?
active

Hi team, can someone confirm the assay call for CC1SC(c2cccc(Oc3ccccc3)c2)N(CCc2cccs2)C1=O (stereo not drawn) ?
inactive

Hi team, can someone confirm the assay call for CCCCCCn1c(=N)n(CC(O)COc2cccc(C)c2)c2ccccc21 (stereo not drawn) ?
inactive

Hi team, can someone confirm the assay call for "CN1CCN(Cc2ccc(NC(=O)c3cncc(C#Cc4c(N)ncc5ccc(F)cc45)c3)cc2C(F)(F)F)CC1" ?
inactive

---

test system: UACC-62 melanoma; test: NCI tumour cell line growth inhibition, 48 h
Recorded Endpoint: TGI

Below are 4 molecules. Give each one its TGI.
1. CC(C)(C)OC(=O)N1CC(COS(C)(=O)=O)c2ccc(O)cc21 (stereo unspecified)
2. CC(=O)OC12CCCCC1C1(CCCC1)NC2=O (stereo unspecified)
3. CCN(CC)CCC(CNc1c2ccc(Cl)cc2nc2ccc(OC)cc12)c1ccccc1 (stereo unspecified)
4. O=C(/C=C\c1ccc(Cl)c(Cl)c1)c1ccccc1

1. 3.2 µM
2. > 100 µM
3. 3.06 µM
4. 21.6 µM

Below are 6 molecules. Give each one its TGI.
1. Cc1ccc(-c2c(C#N)c(O)n(NS(=O)(=O)c3ccccc3)c(=O)c2C#N)cc1
2. CN1CCN(Cc2ccc(NC(=O)c3cncc(C#Cc4c(N)ncc5ccc(F)cc45)c3)cc2C(F)(F)F)CC1
3. CC(=O)NC1C(=O)CC(c2ccccc2)N(C)C1c1ccccc1 (stereo unspecified)
4. CCCCCCCCCCCCCCCCCc1nc(C#N)c(N)o1
5. CC1=C2CC3=C(C)C(=O)O[C@H]3C[C@@H](C)[C@@H]2CC1
6. COc1ccc(/C=C(\NC(=O)c2ccccc2)c2nc3ccccc3[nH]2)cc1

1. > 100 µM
2. 1.81 µM
3. > 100 µM
4. > 100 µM
5. > 100 µM
6. > 100 µM

Name the recorded TGI for "COC[C@@H](N=Cc1ccc(OC)cc1)C(C)C" .
> 100 µM

---

I'd appreciate it if you could supply GI50 values for the items below.
test system: SN12C renal; test: NCI tumour cell line growth inhibition, 48 h

Compound	System Under Test	Recorded Endpoint	Result Value
Cn1cnc2nc(Cl)nc(Cl)c21	SN12C renal	GI50	3.37 µM
COc1ccc2c(c1)CCC1C2CCC2(C)C1CC[C@@]2(O)CNC(=O)/C=C/c1ccc(O)c(O)c1 (stereo partly drawn)	SN12C renal	GI50	2.57 µM

# input for lookup
Name the recorded GI50 for "COc1cc2c(cc1Nc1nc(Nc3ccsc3C(N)=O)c3cc[nH]c3n1)N(C(=O)CN(C)C)CCC2" .
3.67 µM

---

tested on: MDA-MB-435; assay: NCI tumour cell line growth inhibition, 48 h
I'd appreciate it if you could supply log10 TGI values for the items below.
Heads up, the numbers here are log10 of TGI in µM units.

Compound	System Under Test	log10 TGI
C=C1C(=O)O[C@H]2[C@H]1CC/C(Cn1cc(CNC(=O)c3cc4ccccc4[nH]3)nn1)=C\CC[C@@]1(C)O[C@@H]21	MDA-MB-435	0.99
COc1ccc2c(c1)CCC1C2CCC2(C)C1CC[C@@]2(O)CNC(=O)/C=C/c1ccc(O)c(O)c1 (some centres undefined)	MDA-MB-435	1.28
Cc1ccc(-c2cn3c(nc4ccccc43)c(C)n2)cc1	MDA-MB-435	1.99
CN(C)CCCNc1ccc2nnn3c4ccc([N+](=O)[O-])cc4c(=O)c1c23	MDA-MB-435	1.09
O=C1/C(=C/c2ccc([N+](=O)[O-])s2)Oc2ccc(Cl)cc21	MDA-MB-435	0.19

Below are 3 compounds. Give each one its log10 TGI.
1. C=CC(C)(C)c1cc([C@@H]2COc3cc(O)ccc3C2=O)c(O)c(OC)c1OC
2. Clc1ccc(CCN2CCN(CCCc3ccccc3)CC2)cc1Cl
3. Cc1c2cccc-2c(N(C)C)cc2c1[nH]c1ccccc12

1. 1.33
2. 1.49
3. 1.35

---

test system: MDA-N; assay: NCI tumour cell line growth inhibition, 48 h
I'd appreciate it if you could supply TGI values for the items below.
Numbers only, in µM.

Compound	Result Unit	TGI
COc1cc(C=Nc2ccc(Oc3ccc(Cl)cc3)c(Cl)c2)cc(OC)c1OC	µM	51.3
CC(C)(C)OC(=O)N1CC(COS(C)(=O)=O)c2ccc(O)cc21 (stereo unspecified)	µM	3.98

# input for lookup
Name the recorded TGI for "COc1cc2c(cc1C)NC(=O)/C2=C/c1c(Cl)n(C)c2ccccc12" .
5.53

---

test system: T-47D breast; test: NCI tumour cell line growth inhibition, 48 h
Recorded Endpoint: log10 of TGI (log10 of the value in µM)
Heads up, the numbers here are log10 of TGI in µM units.

Solved entries:
Molecule	System Under Test	log10 of TGI
CC1SC(c2cccc(Oc3ccccc3)c2)N(CCc2cccs2)C1=O (stereo not given)	T-47D breast	0.71
Cc1cc(N2CCOCC2)nc(N(CCNc2ccnc3cc(Cl)ccc23)Cc2cccs2)n1	T-47D breast	0.64
C=C(Cl)C(Cl)(CBr)CCC(Cl)C(C)C (stereo not given)	T-47D breast	-0.39

Below are 3 molecules. Give each one its log10 of TGI.
1. CN(C)CCCn1c2c(c3ccncc3c1=O)C(=O)c1ccccc1-2
2. CCS(=O)(=O)Nc1ccc(Oc2ccc(F)cc2F)c(-c2cn(C)c(=O)c3[nH]ccc23)c1
3. O=C(NC(c1ccccc1)C(O)C(=O)OCc1ccc2c(c1)C(=O)c1ccccc1C2=O)c1ccccc1 (stereo not given)

1. 1.32
2. 1.48
3. 1.54

---

test system: OVCAR-8 ovarian; assay: NCI tumour cell line growth inhibition, 48 h
I'd appreciate it if you could supply TGI values for the items below.
Give bare numbers, in µM.

Structure Smiles String	System Under Test	TGI, µM
Cc1cc(C)n(CN(Cn2nc(C)cc2C)c2ccc(N(Cn3nc(C)cc3C)Cn3nc(C)cc3C)cc2)n1	OVCAR-8 ovarian	77.4
O=C1[C@@H]2C3C=CC([C@H]4C(=O)N(CO)C(=O)[C@@H]34)[C@@H]2C(=O)N1CO	OVCAR-8 ovarian	97.6
O=C1/C(=C/c2ccc([N+](=O)[O-])s2)Oc2ccc(Cl)cc21	OVCAR-8 ovarian	4.91

# input for lookup
Name the recorded TGI for "Nc1cc2[nH]c(=O)c3cc(Cl)ccc3c2cc1Cl" .
13.5

---

test system: SK-MEL-2 melanoma; assay: NCI tumour cell line growth inhibition, 48 h
I'd appreciate it if you could supply TGI values for the items below.
Numbers only, in µM.

Molecule	System Under Test	Result Unit	TGI
CN(C)CCCn1c2c(c3ccncc3c1=O)C(=O)c1ccccc1-2	SK-MEL-2 melanoma	µM	6.96
CCOC(=O)C1C(=O)C=C(c2cc(C)ccc2O)CC1c1cccc(Br)c1 (centres undefined)	SK-MEL-2 melanoma	µM	39.4
Cc1cccc(NC(=O)c2sc3nc4c(cc3c2N)CCC4)c1C	SK-MEL-2 melanoma	µM	17.9

Name the recorded TGI for "O=c1[nH]c2cccccc-2c1-c1nc2ccccc2[nH]1" .
77.1
